TESTED_ON: UniProtKB P21462
Sequence (P21462 whole entry): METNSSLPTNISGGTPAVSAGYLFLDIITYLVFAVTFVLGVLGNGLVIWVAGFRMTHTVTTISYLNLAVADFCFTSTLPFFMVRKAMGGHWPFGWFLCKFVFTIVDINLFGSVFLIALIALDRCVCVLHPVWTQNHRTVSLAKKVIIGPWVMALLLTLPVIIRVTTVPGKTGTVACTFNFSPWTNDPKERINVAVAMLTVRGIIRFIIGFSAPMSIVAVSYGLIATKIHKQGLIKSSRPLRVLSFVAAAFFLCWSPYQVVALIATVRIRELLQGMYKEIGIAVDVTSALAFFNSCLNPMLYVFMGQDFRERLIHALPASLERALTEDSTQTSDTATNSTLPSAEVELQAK
EXPERIMENT: FPR1 cyclic adenosine monophosphate (cAMP) assay
ASSAY_CONTEXT: CHO cells overexpressing human FPR1; forskolin 10 µM; inhibition of cAMP production; read-out: hFPR1 cAMP EC50
pEC50: −log10 of the molar value.
MEASURED_ENDPOINT: pEC50

COMPOUND | MEASURED_ENDPOINT | REPORTED
COc1ccc([C@@H]2CN(c3c(C)ccn(CC4CC4)c3=O)C(=O)[C@H]2NC(=O)c2ccc(OC(F)(F)F)cc2)c(F)c1 | pEC50 | 9.30
COc1cc(F)c([C@@H]2CN(c3cc(F)cc(C(C)(C)O)c3)C(=O)[C@H]2NC(=O)c2ccc(Cl)cc2)c(F)c1 | pEC50 | 5.80
COc1cc(F)c([C@@H]2CN(c3nc(N4C[C@@H]5C[C@H]4CN5C)ccc3OC)C(=O)[C@H]2NC(=O)c2ccc(OC(F)F)cc2)c(F)c1 | pEC50 | 6.21
COc1cc(F)c([C@@H]2CN(c3c(C)c4c(n(CCO)c3=O)CCCC4)C(=O)[C@H]2NC(=O)c2ccc(OC(F)F)cc2)c(F)c1 | pEC50 | 8.72
COc1cc(F)c([C@@H]2CN(c3c(C)ccn(C4CCNCC4)c3=O)C(=O)[C@H]2NC(=O)c2ccc(Cl)cc2)c(F)c1 | pEC50 | 7.17

P: O=C(N[C@@H]1C(=O)N(c2cccn(CCO)c2=O)C[C@H]1c1ccc(Cl)cc1)c1ccc(OC(F)(F)F)cc1
Q: COc1ccnc(N2C[C@@H](c3c(F)cc(OC)cc3F)[C@H](NC(=O)c3ccc(OC(F)F)cc3)C2=O)c1
// pick larger pEC50 from pair: P vs Q Your answer should be the label of the entry you select. P
(P: 8.33, Q: 6.02)

1: COCC(CO)n1ccc(C)c(N2C[C@@H](c3ccc(OC)cc3)[C@H](NC(=O)c3ccc(OC(F)(F)F)cc3)C2=O)c1=O (stereo partly drawn) [Example 449]
2: COc1ccc([C@@H]2CN(c3c(C)ccn(CC(F)F)c3=O)C(=O)[C@H]2NC(=O)c2ccc(OC(F)(F)F)cc2)c(F)c1
Form field 'greater pEC50' accepts 1 or 2 ; which applies? The response must carry the label of the picked entry. 1
(1: 9.70, 2: 8.74)

A: COc1cc(F)c([C@@H]2CN(c3nc(N4CCOCC4=O)ccc3F)C(=O)[C@H]2NC(=O)c2ccc(OC(F)(F)F)cc2)c(F)c1
B: COc1cc(F)c([C@@H]2CN(c3cccn4cc(C(F)(F)F)nc34)C(=O)[C@H]2NC(=O)c2ccc(Cl)cc2)c(F)c1
Of A and B , whose reported pEC50 is numerically smaller? // respond with label for picked entry B

a: COc1cc(F)c([C@@H]2CN(c3c(C)ccn(C)c3=O)C(=O)[C@H]2NC(=O)c2ccc(OC(F)F)cc2)c(F)c1
b: COCC(CO)n1cccc(N2C[C@@H](c3ccc(OC)cc3)[C@H](NC(=O)c3ccc(OC(F)(F)F)cc3)C2=O)c1=O (stereo partly drawn)
c: COc1cc(C2CCOCC2)nc(N2C(=O)[C@@H](NC(=O)c3ccc(OC(F)F)cc3)[C@H](c3c(F)cc(OC)cc3F)[C@H]2C)c1
Your job: order these 3 records by pEC50, ascending. Respond with the label ranking, as requested. c, a, b
